Catalogue of Purity (%) at Day 3 values
# Experiment: Effect of concentration on the stability of the solution (purity over time)
# Experimental context: 10 wt % in 50% ethanol, 25° C.
Observation type: Purity (%) at Day 3

INSERT INTO results (compound, observation_type, reported_measurement) VALUES
  ('CC(C)(C)OC(=O)c1ccccc1 [t-Butyl benzoate, reference compound]', 'Purity (%) at Day 3', '5.1%'),
  ('CC(C)(C)OC(=O)C(N)Cc1ccccc1 (centres unmarked) [t-Butyl 2-amino-3-phenylpropanoate, reference compound]', 'Purity (%) at Day 3', '95.9%'),
  ('CC(C)OC(=O)c1ccccc1 [Isopropyl benzoate, reference compound]', 'Purity (%) at Day 3', '98.4%'),
  ('CC(C)OC(=O)C(N)Cc1ccccc1 (centres unmarked) [Isopropyl 2-amino-3-phenylpropanoate, reference compound]', 'Purity (%) at Day 3', '98.6%'),
  ('CCOC(=O)c1ccccc1 [Ethyl benzoate, reference compound]', 'Purity (%) at Day 3', '97.8%');

###

# Experiment: Effect of concentration on the stability of the solution (purity over time)
# Experimental context: 20 wt %; in water at 25° C.
Observation type: Purity at Day 28 (%)

INSERT INTO results (molecule, observation_type, reported_measurement) VALUES
  ('CCN(CC)CCOC(=O)CCc1ccc2cc(OC)ccc2c1.Cl', 'Purity at Day 28', 97.5),
  ('CCN(CC)CCOC(=O)[C@H](C)c1ccc2cc(OC)ccc2c1.Cl (racemic)', 'Purity at Day 28', 97.6),
  ('CCN(CC)CCOC(=O)Cc1ccc(C(=O)c2ccc(C)cc2)n1C.Cl', 'Purity at Day 28', 96.8),
  ('CCN(CC)CCOC(=O)C(C)c1ccc2oc(-c3ccc(Cl)cc3)nc2c1.Cl (centres unmarked)', 'Purity at Day 28', 97.4),
  ('CCN(CC)CCOC(=O)Cc1sc(-c2ccccc2)nc1-c1ccc(Cl)cc1.Cl', 'Purity at Day 28', 97.7),
  ('CCN(CC)CCOC(=O)Cc1c(C)n(C(=O)c2ccc(Cl)cc2)c2ccc(OC)cc12.Cl', 'Purity at Day 28', 97.7),
  ('CCN(CC)CCOC(=O)CC1=C(C)C(=Cc2ccc([S+](C)[O-])cc2)c2ccc(F)cc21.Cl (centres unmarked)', 'Purity at Day 28', 96.8),
  ('CCN(CC)CCOC(=O)CCc1nc(-c2ccccc2)c(-c2ccccc2)o1.Cl', 'Purity at Day 28', 97.5);

###

# Experiment: Stability of the pure HPDs (dry solid) at 25° C./RH 60%
# Format: physicochemical
# Experimental context: pure HPD, 25° C./RH 60%, 24 month
The following compounds are shown together with reported Purity values.
Observation type: Purity

INSERT INTO results (compound, reported_measurement) VALUES
  ('CCN(CC)CCOC(=O)[C@H](C)c1ccc(CC(C)C)cc1.Cl', 97.8),
  ('CCN(CC)CCOC(=O)[C@H](C)c1ccc(-c2ccccc2)c(F)c1.Cl', 98.0),
  ('Br.CCN(CC)CCOC(=O)C(C)c1ccc(-c2ccccc2)c(F)c1 (centres unmarked)', 97.9),
  ('CCN(CC)CCOC(=O)[C@H](C)c1ccc2cc(OC)ccc2c1.Cl', 97.9),
  ('CC(O)C(=O)O.CCN(CC)CCOC(=O)c1ccccc1OC(C)=O', 96.8),
  ('CCN(CC)CCOC(=O)c1ccccc1OC(C)=O.O=C(O)c1ccccc1', 97.1),
  ('CCN(CC)CCOC(=O)[C@@H](C)c1ccc(CC(C)C)cc1.Cl', 98.0),
  ('CCN(CC)CCOC(=O)[C@@H](C)c1ccc2cc(OC)ccc2c1.Cl', 98.0);

The measured values listed here are drawn from patent US20230157952A1.
